Give reverse-splicing fitness for every item shown.
B1: Azoarcus group I ribozyme (parent)
chain: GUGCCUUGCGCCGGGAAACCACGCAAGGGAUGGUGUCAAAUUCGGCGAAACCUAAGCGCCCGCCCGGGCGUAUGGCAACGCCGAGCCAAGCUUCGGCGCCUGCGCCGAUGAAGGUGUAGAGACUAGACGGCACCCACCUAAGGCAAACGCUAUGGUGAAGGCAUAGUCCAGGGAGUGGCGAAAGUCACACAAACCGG

Variants of: B1
Assay Info: reverse-splicing fitness (ratio to wild type); higher = more active; in vitro selection; Mg2+ level not given
Give bare numbers.

Please supply reverse-splicing fitness for each of the following items, keeping them in order.
1. C82G A120C A145C C150U C169G U176A
2. A120G A145G C169G
3. C82A A111G A120C A145G C150G U176G
4. C82A A111U A120G A145U C150U C169G

[0.0259, 0.639, 0.00593, 0.0104]
